Organism: Homo sapiens
Test Protocol: To identify inhibition of the IFN signalling (Jak-Stat) pathway via expression of an eGFP reporter gene under the control of an IFN-stimulated response element (ISRE) containing MxA promoter.
Type: functional
Set-up: scale not given: direction of the effect not stated beside the values
Particulars: 30 µM
Quantity: Percent Effect (%)
Numbers only, in %.

1) Cc1ccc(NC2CCN(C(=O)c3ccsc3)CC2)nn1 | 30
2) CCN(Cc1ccc2c(c1)OCO2)C(=O)c1ccc(C)[nH]c1=O | 15.1
3) CC(O)CN1CCN(Cc2cccc(C(=O)N(C)C)c2)CC1 (stereo not given) | 5.72
4) O=C(CCn1ccccc1=O)Nc1ccc(F)c(Cl)c1 | -1.47
5) Cc1ccc(CC(=O)N2CCOC(c3nc(C)n[nH]3)C2)cn1 (stereo not given) | -6.79

Go through the list and state Percent Effect for each entry.
1. c1ccc(C[C@H]2[C@H](N3CCOCC3)CCN2Cc2cccnc2)cc1
2. O=C(Nc1cccnc1)N1CCC(n2ccc(C(F)(F)F)n2)CC1
3. CCNC(c1cccnc1)c1ccc(F)c(F)c1 (stereo not given)
4. COc1cccc2c1OCC(NC(=O)NCc1cccs1)C2 (stereo not given)

### Response
[-7.93, 2.75, 5.14, 5.73]
